# measurement_protocol: qHTS Assay for inhibitors of the human cytomegalovirus (HCMV); further: on the % scale 0 is the no-effect control and ±100 the full control effect
# condition_details: HFF cells, HCMV-luciferase reporter, 72 h; at 57.5 µM
Screen size: about 410,000 compounds; about 18,000 (4.4%) were called active. Not shown: some 7% with an inconclusive outcome. No stated cut-off is given here; in the data, active means activity change below about -60%; inconclusive means no clear call, values can overlap the other calls; inactive means above about -39%. The entries come from a sample that favours actives as a whole.
Classes used: class 1 for active, class 0 for inactive

>>> print(df.to_string())
                                   compound  qualitative_label
0  OC(c1ccccc1)c1nc(-c2cnc3ccccc3c2)cs1 (centres undefined)            class 0
1  COc1ccc(NC(=O)c2sc(=O)n(Cc3ccc(S(=O)(=O)N(C)C)cc3)c2C)cc1            class 0
2  Cc1cc(NC(=O)CS(=O)(=O)c2cn(C)c3ccccc23)no1            class 1
3  CC(=O)NC(c1ccccc1)c1nc(-c2ccccc2C)cs1 (centres undefined)            class 0

====

# measurement_protocol: qHTS Assay for inhibitors of the human cytomegalovirus (HCMV); further: on the % scale 0 is the no-effect control and ±100 the full control effect
# condition_details: HFF cells, HCMV-luciferase reporter, 72 h; at 57.5 µM; hits give low values
The whole screen tested about 410,000 compounds, of which about 18,000 (4.4%) were called active. Not shown: some 7% with an inconclusive outcome. The sample holds actives, similar compounds and a random draw of the others, so the mix is not that of the screen.
The entries below are paired with their reported activity change, negative = inhibition.
endpoint_label: activity change, negative = inhibition (%)

In [3]: df
Out[3]:
                                   compound  quantitative_result
0       CC1=CC(=Cc2sc3ccccc3[n+]2C)C=C(C)O1                 -100
1  CCNC(=O)C1CCCN(C(=O)c2ccc(OC)cc2OC)CC1 (stereo not given)                -11.4
2  CCOC(=O)N1CCC(NC(=O)c2cnn(-c3cccc(C)c3)c2C2CCN(C(=O)OC(C)(C)C)CC2)CC1                    0
3  COc1ccccc1CN1CCC(CNC(=O)c2cnn(-c3cccc(Cl)c3)c2C2CCN(C(=O)OC(C)(C)C)CC2)CC1                 -108
4  COC(=O)c1cccc(C(=O)N2CCCC(Nc3ccc4c(c3)OCCO4)C2)c1 (stereo not given)                -15.6
5  COc1ccccc1N1CCN(CCCNC(=O)c2cnn(-c3ccccc3Cl)c2C2CCN(C(=O)OC(C)(C)C)CC2)CC1                -12.2
6  O=C(Cc1ccc(Cl)cc1)NCCN1CCN(C(=O)Cc2ccc(Cl)cc2)CC1                -18.4
7  Cc1ccc(-c2nn3c(=O)cc(CN4CCN(S(=O)(=O)c5ccc(Cl)cc5)CC4)nc3s2)cc1                -1.44
8  CN(C)CCCN(C(=O)c1ccc(S(=O)(=O)N2CCCc3ccccc32)cc1)c1nc2ccc(F)cc2s1                 -113
9  CSc1ncc(Cl)c(C(=O)Nc2ccc(S(=O)(=O)N3CCCC(C)C3)cc2)n1 (stereo not given)                  -86

====

# measurement_protocol: qHTS Assay for inhibitors of the human cytomegalovirus (HCMV); further: on the % scale 0 is the no-effect control and ±100 the full control effect
# condition_details: HFF cells, HCMV-luciferase reporter, 72 h; at 57.5 µM
The whole screen tested about 410,000 compounds, of which about 18,000 (4.4%) were called active. Another 7% or so got no clear call; they are omitted. Cut-off read from the data, not from the text of the source: active = activity change below about -60%; inconclusive = no clear call, values can overlap the other calls; inactive = above about -39%. The full list was thinned out, with actives kept by preference.
Classes used: active, inactive

                                    compound  qualitative_label
 0  C=CCNc1nc(N)c([N+](=O)[O-])c(NC2CCCCC2)n1           inactive
 1  CC(C)(C)c1ccc(OCC(=O)N2CCC(c3nc4ccccc4s3)CC2)cc1           inactive
 2  CCCC[C@@H]1CN=C(N)N1CCc1cc(C(F)(F)F)cc(C(F)(F)F)c1             active
 3  CCOc1ccc(N2CC(c3nc4ccccc4n3CCOc3ccc(OC)cc3)CC2=O)cc1 (centres undefined)           inactive
 4  COc1ccccc1C(=O)Nc1c(C(=O)N(C)Cc2ccccc2)sc2nc(C)c(Cl)c(C)c12           inactive
 5        CN(Cc1cccs1)C(=O)Cc1c[nH]c2ccccc12           inactive
 6  CCOc1ccc2nc(N3CCC(C(=O)Nc4cc(C)ccc4C)CC3)sc2c1           inactive
 7     C=CCNC(=O)c1cc2nc(C3CC3)cc(C(F)F)n2n1           inactive
 8  COc1ccccc1NC(=O)c1sc2nc(C)c(C(=O)Nc3ccc(Cl)cc3)c(-c3ccc(Br)cc3)c2c1N             active
 9  COc1cc2[nH]c(=O)n(Cc3ccc(C(=O)NCc4ccc(C)cc4)cc3)c(=O)c2cc1OC           inactive
10  Cc1ccc(Cn2c(C)c3cnn(CC(=O)NCc4ccccc4)c(=O)c3c2C)cc1           inactive
11  CCn1c(=O)c2cc(C(=O)NCCc3ccc(Cl)cc3)sc2c2ccccc21           inactive
12  CCn1c(-c2cc(OC)ccc2OC)csc1=Nc1c(C)n(C)n(-c2ccccc2)c1=O           inactive
13  CC(Sc1oc(-c2ccco2)nc1S(=O)(=O)c1ccc(Br)cc1)c1ccccc1 (centres undefined)           inactive
14  Cc1ccc2c(c1)N(CC(=O)N1CCCC(C)C1)C(=O)CO2 (centres undefined)           inactive
15  O=C(/C=C/c1ccc([N+](=O)[O-])o1)NNC(=O)c1ccc(F)cc1             active
16  CCCOc1cccc(C(=O)Nc2cccc(NC(=O)c3ccc(C(C)(C)C)cc3)c2)c1           inactive
17  CCc1ccc(CNC(=O)c2cc3c(=O)n(CC)c4ccccc4c3s2)cc1           inactive
18  Fc1ccc(OCc2nn3c(Cn4nnc5ccccc54)nnc3s2)cc1           inactive
19         COc1ccc(/C=N/n2c(C)cc(C)cc2=O)cc1           inactive
20  Cn1c(=O)n(Cc2c(F)cccc2Cl)c(=O)c2c1nc1n2CCN1c1ccc(F)cc1           inactive
21   c1ccc(Cc2nn3c(Cn4cnc5ccccc54)nnc3s2)cc1             active
22  CCOc1cc2[nH]c(=S)n(CCCN3CCCC3=O)c(=O)c2cc1OCC           inactive
23  CCN(CCCNC(=O)c1cc2c(=O)n(CC)c3ccccc3c2s1)Cc1ccccc1             active
24  CN(Cc1cccc2ncccc12)C(=O)CC1C(=O)NCCN1Cc1ccc(F)cc1 (centres undefined)           inactive
25  CN=c1scc(-c2cc(OC)ccc2OC)n1/N=C/c1c(C)[nH]c2ccccc12             active
26  CCOc1ccc(CNC(=O)C2CCCN(c3nnc(C)c4c(C)n(-c5ccccc5)nc34)C2)cc1 (centres undefined)             active
27  CN(C)C1=NC[C@H](Cc2ccccc2)N1CCc1ccc(F)cc1           inactive
28  COc1cccc(-c2n[nH]c3c2C(c2cccc(O)c2)N(C)C3=O)c1 (centres undefined)           inactive
29  CCC(=O)N1c2ccccc2CC1C(=O)N1CCN(c2cccc(OC)c2)CC1 (centres undefined)           inactive
30            COc1ccccc1NC(=O)c1cc(Cl)nnc1Cl           inactive
31  O=C(CNS(=O)(=O)c1cccs1)N1CCN(c2ccccc2Cl)CC1           inactive
32  Nc1nc(Nc2ccccc2F)nc(NC2CCCCC2)c1[N+](=O)[O-]             active
33  Cc1cc(C)nc(N2C(=O)CC(Cc3ccccc3)C2=O)n1 (centres undefined)           inactive

====

# measurement_protocol: qHTS Assay for inhibitors of the human cytomegalovirus (HCMV); further: on the % scale 0 is the no-effect control and ±100 the full control effect
# condition_details: HFF cells, HCMV-luciferase reporter, 72 h; at 57.5 µM
Screen size: about 410,000 compounds; about 18,000 (4.4%) were called active. About 7% were inconclusive and are not listed. No stated cut-off is given here; in the data, active means activity change below about -60%; inconclusive means no clear call, values can overlap the other calls; inactive means above about -39%. This excerpt belongs to a sample that is enriched for actives.
Classes used: yes (1) for active, no (0) for inactive

>>> df
                                   molecule  qualitative_label
0  CCOc1ccc(N2C(=O)Nc3ccccc3C2(O)C(=O)NCc2ccco2)cc1 (stereo not given)             no (0)
1  CCOc1ccc(C(CCc2ccccc2)NC(=O)c2ccc(OC)c(OC)c2)cc1OCC (stereo not given)             no (0)
2  CC(=O)Nc1cccc(NC(=O)CSc2cn(CC(=O)N3CCCC3)c3ccccc23)c1             no (0)
3  COc1ccccc1OCC(O)CN1CCOCC1 (stereo not given)            yes (1)
4  CCNS(=O)(=O)c1ccc(CCC(=O)N2CCN(c3ccc(OC)cc3)CC2)cc1             no (0)
5  COc1ccc(C(CCN(Cc2ccc(OC)c(OC)c2)C(=O)CCl)c2ccccc2)cc1 (stereo not given)            yes (1)
6  CCCn1c(=N)n(CC(O)COc2ccccc2OC)c2ccccc21 (stereo not given)             no (0)
7  CCN(CCCCOC(=O)c1ccc(OC)c(OC)c1)C(C)Cc1ccc(OC)cc1 (stereo not given)             no (0)
8  CCOc1ccc(CNC(=O)c2cccc(Nc3nc4ccccc4n4nnnc34)c2)cc1OC             no (0)
9  O=C(CSc1nc2c(c(=O)[nH]1)CN(Cc1ccc3c(c1)OCO3)CC2)Nc1cc(F)ccc1F             no (0)

Sourced from PubChem BioAssay AID1259415
